- Test System: Protein deacetylase HDAC6 (Homo sapiens, UniProt Q9UBN7)
- Sequence (Q9UBN7 whole entry): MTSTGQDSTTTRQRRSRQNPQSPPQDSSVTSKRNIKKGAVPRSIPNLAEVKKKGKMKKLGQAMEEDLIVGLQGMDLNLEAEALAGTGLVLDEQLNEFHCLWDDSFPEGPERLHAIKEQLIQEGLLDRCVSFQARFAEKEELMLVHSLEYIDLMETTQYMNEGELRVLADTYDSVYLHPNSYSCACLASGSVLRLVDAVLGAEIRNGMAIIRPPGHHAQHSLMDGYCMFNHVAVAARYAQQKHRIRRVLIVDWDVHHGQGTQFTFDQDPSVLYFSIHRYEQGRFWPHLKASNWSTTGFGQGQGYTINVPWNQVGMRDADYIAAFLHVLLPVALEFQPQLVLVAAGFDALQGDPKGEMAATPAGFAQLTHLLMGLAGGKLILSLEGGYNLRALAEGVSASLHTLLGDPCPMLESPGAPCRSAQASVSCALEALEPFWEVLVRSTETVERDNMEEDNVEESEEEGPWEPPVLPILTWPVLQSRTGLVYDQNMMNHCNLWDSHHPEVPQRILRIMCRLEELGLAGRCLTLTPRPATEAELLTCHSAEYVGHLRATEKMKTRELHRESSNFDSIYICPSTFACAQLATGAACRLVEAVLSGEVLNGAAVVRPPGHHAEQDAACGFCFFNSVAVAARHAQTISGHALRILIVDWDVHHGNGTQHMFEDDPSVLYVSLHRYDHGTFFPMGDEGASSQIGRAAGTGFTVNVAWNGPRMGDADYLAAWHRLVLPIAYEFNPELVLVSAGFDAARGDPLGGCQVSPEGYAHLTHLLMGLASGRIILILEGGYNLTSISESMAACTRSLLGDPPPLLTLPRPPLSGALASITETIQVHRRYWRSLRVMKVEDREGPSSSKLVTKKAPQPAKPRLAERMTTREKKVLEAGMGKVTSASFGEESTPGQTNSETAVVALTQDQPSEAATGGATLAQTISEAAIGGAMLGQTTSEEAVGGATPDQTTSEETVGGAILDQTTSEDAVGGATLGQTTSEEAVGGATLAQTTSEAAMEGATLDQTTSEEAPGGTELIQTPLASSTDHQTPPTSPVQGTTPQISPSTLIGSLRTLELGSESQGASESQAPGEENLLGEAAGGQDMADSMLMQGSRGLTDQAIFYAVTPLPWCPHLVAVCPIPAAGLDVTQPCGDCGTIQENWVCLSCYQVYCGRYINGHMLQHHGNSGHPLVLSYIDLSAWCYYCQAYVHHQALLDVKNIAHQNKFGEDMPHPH
Result Type: IC50 (µM)
Numbers only; they are read as µM.

*Q* For the sequence FLUPENTIXOL , what IC50 is on record?
*A* 1.55
